# PROCEDURE SUMMARY: in vivo
# CONDITION INFO: male, Wistar, rat, ip, 1 mg/kg
METRIC NAME: Cmax at 24 h (ng/mL)
Just the number in ng/mL, nothing appended.

Give the measured Cmax at 24 h of O=C(O)c1cc(-c2ccc(-c3cc(CO)on3)cc2)c2ccc(-c3ccc(C(F)(F)F)cc3)cc2c1 .
88.4
